Answer each item with its documented IC50.
- target: GSK3β (Homo sapiens, UniProt P49841)
- Sequence (P49841 whole entry, species assumed): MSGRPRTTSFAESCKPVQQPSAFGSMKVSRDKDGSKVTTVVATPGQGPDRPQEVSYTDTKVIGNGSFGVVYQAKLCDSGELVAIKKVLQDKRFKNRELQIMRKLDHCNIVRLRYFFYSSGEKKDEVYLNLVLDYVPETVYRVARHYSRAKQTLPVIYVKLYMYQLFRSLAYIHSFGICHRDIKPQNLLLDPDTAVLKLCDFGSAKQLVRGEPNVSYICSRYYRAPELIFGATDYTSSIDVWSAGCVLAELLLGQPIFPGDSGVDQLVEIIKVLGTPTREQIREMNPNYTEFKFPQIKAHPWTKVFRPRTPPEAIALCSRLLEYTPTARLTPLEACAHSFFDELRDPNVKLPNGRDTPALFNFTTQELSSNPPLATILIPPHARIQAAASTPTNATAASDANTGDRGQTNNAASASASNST
- experiment-notes: In vitro kinase TR-FRET assay GSK3β
- Type: biochemical
- condition: enzyme 0.6 nM, ATP 7.6 μM

Please respond with reported IC50 (system GSK3β (Homo sapiens, UniProt P49841)) for CC(C)NC(=O)O[C@@H]1CC[C@H](c2cc(Nc3ccc(F)c4c3CCS4(=O)=O)n[nH]2)C1 [Example 50] .
50 to 500 nM

# return IC50 for CC(C)NC(=O)O[C@@H]1CC[C@H](c2cc(Nc3ccc4c(c3)CCC4C#N)n[nH]2)C1 (stereo partly drawn) [Example 29] , test system: GSK3β (Homo sapiens, UniProt P49841)
50 to 500 nM

Under GSK3β (Homo sapiens, UniProt P49841), report IC50 for Cc1ccc(Nc2cc([C@H]3CC[C@@H](OC(=O)NC(C)C)C3)[nH]n2)c2c1S(=O)(=O)CC2 [Example 65]
50 to 500 nM

Report measured IC50 on GSK3β (Homo sapiens, UniProt P49841); entry: Cc1c([C@@H]2CC[C@H](OC(=O)NC(C)C)C2)n[nH]c1Nc1ccc2c(c1)CCS2(=O)=O (racemic) [Example 24]
> 1000 nM

Look up and report measured IC50 (GSK3β (Homo sapiens, UniProt P49841)) for the following compound: CC(C)NC(=O)O[C@@H]1CC[C@H](c2cc(Nc3ccc4c(c3)N(C)S(=O)(=O)C4)n[nH]2)C1 [Example 41]
500 to 1000 nM

Provide IC50, recorded with GSK3β (Homo sapiens, UniProt P49841), of CC(C)NC(=O)O[C@H]1C[C@@H](c2cc(Nc3nccc4c3CCS4(=O)=O)n[nH]2)C1 [Example 70]
< 50 nM

Fill in IC50 for CC(C)NC(=O)O[C@@H]1CC[C@H](c2cc(Nc3ccc4c(c3)S(=O)(=O)CCC4)n[nH]2)C1 [Example 39] tested with GSK3β (Homo sapiens, UniProt P49841).
50 to 500 nM

Give IC50 for Cc1c(Nc2ccc3c(c2)CS(=O)(=O)C3)n[nH]c1[C@H]1CC[C@@H](OC(=O)NC(C)(C)C)C1 [Example 44] tested on GSK3β (Homo sapiens, UniProt P49841).
> 1000 nM

Give the observed IC50 of CC(C)NC(=O)O[C@@H]1CC[C@H](c2cc(Nc3ccc4c(c3)oc(=O)n4C)n[nH]2)C1 [Example 34] for GSK3β (Homo sapiens, UniProt P49841).
500 to 1000 nM

Report the value of IC50 obtained on GSK3β (Homo sapiens, UniProt P49841) for CC(C)NC(=O)O[C@@H]1CC[C@H](c2cc(Nc3ccc4c(n3)CCS4(=O)=O)n[nH]2)C1 [Example 55] .
50 to 500 nM

State measured IC50 of the compound CC(C)NC(=O)O[C@@H]1CC[C@H](c2cc(Nc3ccc4c(c3)CC(F)(F)C4)n[nH]2)C1 [Example 32] with GSK3β (Homo sapiens, UniProt P49841).
500 to 1000 nM

Find IC50 for CC(C)NC(=O)O[C@@H]1CC[C@H](c2cc(Nc3ccc4c(c3)C(C)(C)CS4(=O)=O)n[nH]2)C1 [Example 21] on GSK3β (Homo sapiens, UniProt P49841) and write it down.
50 to 500 nM

// fetch IC50; item: CC(C)NC(=O)O[C@@H]1CC[C@H](c2cc(Nc3ccc4c(c3)CCS4(=O)=O)n[nH]2)C1 [Example 9] ; system: GSK3β (Homo sapiens, UniProt P49841)
50 to 500 nM

Give reported IC50 for CC(C)NC(=O)O[C@H]1CC[C@@H](c2cc(Nc3ccc4c(c3)S(=O)(=O)CC4)n[nH]2)CC1 [Example 27] (GSK3β (Homo sapiens, UniProt P49841))
> 1000 nM

# assay system GSK3β (Homo sapiens, UniProt P49841): give IC50 of CC(C)NC(=O)O[C@H]1C[C@@H](c2cc(Nc3ccc4c(c3)CS(=O)(=O)C4)n[nH]2)C1 [Example 28]
50 to 500 nM
